System: COR-L23
Assay: relative viability (nuclei count vs DMSO), 5 days (fraction); higher = more cells survive
Conditions: first compound 0.1 µM
quantity.kind: relative viability

In: # query: relative viability of entry NC(=O)Nc1cc(-c2cccc(F)c2)sc1C(=O)N[C@H]1CCCNC1 [AZD7762] + Cc1nc(Nc2ncc(C(=O)Nc3c(C)cccc3Cl)s2)cc(N2CCN(CCO)CC2)n1 [Dasatinib] (partner 0.075 µM)
Out: 0.515

In: # input molecule: NC(=O)Nc1cc(-c2cccc(F)c2)sc1C(=O)N[C@H]1CCCNC1 [AZD7762] + Cc1nc(NC(=O)N2CCC[C@H]2C(N)=O)sc1-c1ccnc(C(C)(C)C(F)(F)F)c1 [Alpelisib] (partner 2 µM) ; wanted: its relative viability
Out: 0.797

In: Tell me the measured relative viability of NC(=O)Nc1cc(-c2cccc(F)c2)sc1C(=O)N[C@H]1CCCNC1 [AZD7762] + Cc1cc(Nc2cc(N3CCN(C)CC3)nc(Sc3ccc(NC(=O)C4CC4)cc3)n2)n[nH]1 [Tozasertib] (partner 0.1 µM) , please.
Out: 0.193

In: What value of measured relative viability is listed for NC(=O)Nc1cc(-c2cccc(F)c2)sc1C(=O)N[C@H]1CCCNC1 [AZD7762] + C[C@@H](Oc1cc(-c2cnn(C3CCNCC3)c2)cnc1N)c1c(Cl)ccc(F)c1Cl [Crizotinib] (partner 1 µM) ?
Out: 0.616
